Attribution: patent US8993586B2

molecular target: recombinant human ACC1 (rhACC1) (Homo sapiens (Human)); assay: recombinant hACC1 Transcreener ADP detection FP assay; conditions: 50 μM ATP, 120 min at 25° C.
IC50 vs 60 nM: less than gives rule met; not less than gives rule not met.

Asked: Determine whether this compound shows IC50 lower than 60 nM (ties excluded): "Cc1nc2cc(C(=O)N3CCC4(CC3)Cc3cn(C(C)C)nc3C(=O)N4)ccc2[nH]1"
Given back: rule not met

Asked: Determine whether this compound shows IC50 lower than 60 nM (ties excluded): "CNc1n[nH]c2cc(C(=O)N3CCC4(CC3)Cc3cn(C(C)(C)C)nc3C(=O)N4)ccc12"
Given back: rule not met

Asked: Determine whether this compound shows IC50 lower than 60 nM (ties excluded): "CNc1n[nH]c2ccc(C(=O)N3CCC4(CC3)Cc3cn(C(C)(C)C)nc3C(=O)N4)cc12"
Given back: rule not met
